- PROCEDURE_SUMMARY: chemical genetic growth profiling, strain panel (AID 1159580);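 note: tested at 20 µM; growth read once vehicle control cultures reached saturation at 30 °C; 1 = growth at the plate median or of vehicle wells; lower values mean less growth of the strain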
- CONDITION_INFO: S. cerevisiae deletion strains, growth OD, locus YOR001W, strain rrp6, active compounds read low
In all, about 5,500 compounds went through this assay and about 2,000 (36%) were called active. About 18% were inconclusive and are not listed. The list shows a part of the results.
VALUE_KIND: normalized growth
Lab note: record the figure alone, no unit after it.

Input `C=CCSSCC=C` , output reported normalized growth.
1.01

Input CC1=CC(=O)C2C(C)(C)CCC[C@]2(C)[C@@]1(O)CCc1ccoc1 (stereo partly specified) , output reported normalized growth.
1.06
